B1: MEF2-activating motif and SAP domain-containing transcriptional regulator, residues 170 to 204; numbered along this chain, Q6ZN01 (parent)
chain: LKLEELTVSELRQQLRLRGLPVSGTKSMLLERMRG

variants of: B1; assay: abundance fitness (aPCA) (normalised: wild type 0, dead -1); higher = more abundant; growth selection in yeast, the domain comes from the species named; settings: Homo sapiens
# reported abundance fitness; entries follow

MUTATION_STRING | abundance fitness
R12P | -0.602
L15D | -0.599
L20Q | -0.587
M33N | -0.613
